tested on: MCF10A; experiment: 5+ nucleoli phenotype percent effect (relative to siNT 0% and siKIF11 100%); higher = more cells with five or more nucleoli; details: 20 nM; 72 h
QUANTITY NAME: 5+ nucleoli phenotype percent effect (%)
Report the value in % with no unit label.

Consider the reported 5+ nucleoli phenotype percent effect for these sequences:
CONSTRUCT SEQUENCE | REPORTED VALUE
ACUGGACUUGGAGUCAGGA [hsa-miR-378e] | -3.63
AAUAAUAUCACAGUAGGUGUAC [hsa-miR-5692c] | 46
CUACAAAGGGAAGCACUUUCUC [hsa-miR-524-5p] | -38.7
GUGGGGCCAGGCGGUGG [hsa-miR-1227-5p] | 55.1
GAAAAUCCUUUUUGUUUUUCCAG [hsa-miR-4668-3p] | 28.5
UCGUGGCCUGGUCUCCAUUAU [hsa-miR-1204] | 2.14
ACUGCAUUAUGAGCACUUAAAG [hsa-miR-20a-3p] | 43.3
UCACCUGAGCUCCCGUGCCUG [hsa-miR-3622b-3p] | 29.9

For CAGGGAACCAGUUGGGGCUU [hsa-miR-6822-5p] , what is its reported 5+ nucleoli phenotype percent effect?
-8.39

GCUUGUCGCUGCGGUGUUGCU [hsa-miR-3655] ?
-7.75
